Reported values: pIC50 for EN PA (Influenza A virus), one per item.
pIC50: −log10 of the molar value.

Record lookup: for EN PA (Influenza A virus), what pIC50 belongs to `Cc1cn(C2(Cn3cc(O)c(=O)c(C(=O)NC(C)(C)CO)n3)CCCC2)c2ncccc12` ? > 7.00

Next entry: `O=C(NCc1ccccc1)c1nn(CC2(c3ccncc3)CCCC2)cc(O)c1=O` 6.00 to 7.00

Now the same for `O=C(NCc1ccccc1)c1nn(CC2(c3cncnc3)CCCC2)cc(O)c1=O` > 7.00

Entry `CCN1CCN(c2ccccc2-n2cc(O)c(=O)c(C(=O)O)n2)CC1` please ≤ 6.00

Record: `O=C(O)c1nn(-c2ccccc2S(=O)(=O)c2ccccc2)cc(O)c1=O` > 7.00

Proceed to `Cc1ccc(CNC(=O)c2nn(CC3(c4cccc(C(F)(F)F)c4)CCCC3)cc(O)c2=O)cc1` 6.00 to 7.00

Also check `O=C(O)c1nn(-c2ccccc2-c2ccccc2)cc(O)c1=O` 6.00 to 7.00

Also CC1(C)CCC(Cn2cc(O)c(=O)c(C(=O)O)n2)(c2ccccc2)C1 (centres unmarked) ? > 7.00

Likewise for `O=C(O)c1nn(-c2ccccc2-c2ccc3cc[nH]c3c2)cc(O)c1=O` ? 6.00 to 7.00

Now the compound CC1(C)CCC(Cn2cc(O)c(=O)c(C(=O)NCc3ccc(F)c(Cl)c3)n2)(c2ccccc2)C1 (centres unmarked) 6.00 to 7.00

Try `Cc1cn(C2(Cn3cc(O)c(=O)c(C(=O)NC4CC4)n3)CCCC2)c2ncccc12` next. > 7.00

Another: `CC(C)(C)NC(=O)c1nn(CC2(n3cc(Cl)c4cccnc43)CCCC2)cc(O)c1=O` > 7.00

Another compound: `CNC(=O)c1nn(CC2(n3ccc4c(C)cccc43)CCCC2)cc(O)c1=O` > 7.00

Thanks! And `CNC(=O)c1nn(CC2(c3ccc4ccccc4n3)CCCC2)cc(O)c1=O` ? > 7.00

Try `CNC(=O)c1nn(CC2(n3ccc4c(Cl)cccc43)CCCC2)cc(O)c1=O` next. > 7.00

`CNC(=O)c1nn(CC2(c3ccc4cnccc4c3)CCCC2)cc(O)c1=O` , same question. > 7.00

Now the compound `COc1ccc(CNC(=O)c2nn(CC3(c4cccc(C(F)(F)F)c4)CCCC3)cc(O)c2=O)cc1` 6.00 to 7.00

Here is the next compound: `CNC(=O)c1nn(CCc2cccc3ccccc23)cc(O)c1=O` 6.00 to 7.00

Please answer likewise for `CC(C)c1ccccc1-c1ccccc1-n1cc(O)c(=O)c(C(=O)O)n1` 6.00 to 7.00

Same for `O=C(O)c1nn(-c2ccc(N3CCCCC3)cc2)cc(O)c1=O` ≤ 6.00

Subsequent entry: `O=C(O)c1nn(CC2(c3cccc(C(F)(F)F)c3)CC2)cc(O)c1=O` 6.00 to 7.00

And for `CNC(=O)c1nn(-c2ccccc2N2CCN(C)CC2)cc(O)c1=O` ? ≤ 6.00

Now the compound `CC(C)(C)C1CCN(c2ccccc2-n2cc(O)c(=O)c(C(=O)O)n2)CC1` 6.00 to 7.00
